# Tested on: A549
# ASSAY EXPLANATION: Cytotoxicity against human A549 cells after 48 hrs by MTT assay
# Format: functional, cell-based
# REPORTED CONDITIONS: A549, 48 h
MEASURED METRIC: IC50 (µM)

[
  {
    "COMPOUND STRUCTURE": "CCOC(=O)c1c(-c2cc3cc(OC)ccc3oc2=O)nn(-c2cccc(Cl)c2)c1C(=O)OCC",
    "TARGET SYSTEM": "A549",
    "READOUT VALUE": 148
  },
  {
    "COMPOUND STRUCTURE": "COC(=O)c1c(-c2cc3ccccc3oc2=O)nn(-c2ccc(Br)cc2)c1C(=O)OC",
    "TARGET SYSTEM": "A549",
    "READOUT VALUE": 165
  },
  {
    "COMPOUND STRUCTURE": "CCOC(=O)c1c(-c2cc3ccc(OC)cc3oc2=O)nn(-c2ccccc2)c1C(=O)OCC",
    "TARGET SYSTEM": "A549",
    "READOUT VALUE": 132
  },
  {
    "COMPOUND STRUCTURE": "CCOC(=O)c1c(-c2cc3ccccc3oc2=O)nn(-c2ccc(Br)cc2)c1C(=O)OCC",
    "TARGET SYSTEM": "A549",
    "READOUT VALUE": 100
  },
  {
    "COMPOUND STRUCTURE": "CCOC(=O)c1c(-c2cc3c(ccc4ccccc43)oc2=O)nn(-c2cccc(C)c2)c1C(=O)OCC",
    "TARGET SYSTEM": "A549",
    "READOUT VALUE": 179
  },
  {
    "COMPOUND STRUCTURE": "Cc1nn(-c2ccc(Br)cc2)c2c1c(=O)oc1ccccc12",
    "TARGET SYSTEM": "A549",
    "READOUT VALUE": 130
  },
  {
    "COMPOUND STRUCTURE": "CCOC(=O)c1c(-c2cc3ccc(OCC=C(C)C)cc3oc2=O)nn(-c2cccc(Cl)c2)c1C(=O)OCC",
    "TARGET SYSTEM": "A549",
    "READOUT VALUE": 163
  },
  {
    "COMPOUND STRUCTURE": "COC(=O)c1c(-c2cc3ccccc3oc2=O)nn(-c2cccc(Cl)c2)c1C(=O)OC",
    "TARGET SYSTEM": "A549",
    "READOUT VALUE": 30
  },
  {
    "COMPOUND STRUCTURE": "CCOC(=O)c1c(-c2c(Cl)c3ccccc3oc2=O)nn(-c2ccc(Br)cc2)c1C(=O)OCC",
    "TARGET SYSTEM": "A549",
    "READOUT VALUE": 30
  },
  {
    "COMPOUND STRUCTURE": "CCOC(=O)c1c(-c2cc3ccccc3oc2=O)nn(-c2ccc(C)c(C)c2)c1C(=O)OCC",
    "TARGET SYSTEM": "A549",
    "READOUT VALUE": 52
  },
  {
    "COMPOUND STRUCTURE": "CCOC(=O)c1c(-c2cc3ccc(OCC=C(C)C)cc3oc2=O)nn(-c2ccccc2)c1C(=O)OCC",
    "TARGET SYSTEM": "A549",
    "READOUT VALUE": 136
  },
  {
    "COMPOUND STRUCTURE": "Cc1ccc2oc(=O)c3cnn(-c4ccccc4)c3c2c1",
    "TARGET SYSTEM": "A549",
    "READOUT VALUE": 125
  },
  {
    "COMPOUND STRUCTURE": "CCOC(=O)c1c(-c2cc3ccccc3oc2=O)nn(-c2cccc(Cl)c2)c1C(=O)OCC",
    "TARGET SYSTEM": "A549",
    "READOUT VALUE": 28
  },
  {
    "COMPOUND STRUCTURE": "COc1ccc(-n2nc(C)c3c(=O)oc4ccccc4c32)cc1",
    "TARGET SYSTEM": "A549",
    "READOUT VALUE": 27
  },
  {
    "COMPOUND STRUCTURE": "COC(=O)c1c(-c2cc3ccccc3oc2=O)nn(-c2cccc(F)c2)c1C(=O)OC",
    "TARGET SYSTEM": "A549",
    "READOUT VALUE": 50
  },
  {
    "COMPOUND STRUCTURE": "CCOC(=O)c1c(-c2c(Cl)c3cc(C)ccc3oc2=O)nn(-c2cccc(Cl)c2)c1C(=O)OCC",
    "TARGET SYSTEM": "A549",
    "READOUT VALUE": 128
  },
  {
    "COMPOUND STRUCTURE": "CCOC(=O)c1c(-c2cc3ccccc3oc2=O)nn(-c2cccc(F)c2)c1C(=O)OCC",
    "TARGET SYSTEM": "A549",
    "READOUT VALUE": 59
  },
  {
    "COMPOUND STRUCTURE": "CCOC(=O)c1c(-c2cc3ccc(OCC=C(C)C)cc3oc2=O)nn(-c2cccc(C)c2)c1C(=O)OCC",
    "TARGET SYSTEM": "A549",
    "READOUT VALUE": 178
  },
  {
    "COMPOUND STRUCTURE": "CCOC(=O)c1c(-c2cc3ccccc3oc2=O)nn(-c2ccccc2)c1C(=O)OCC",
    "TARGET SYSTEM": "A549",
    "READOUT VALUE": 100
  },
  {
    "COMPOUND STRUCTURE": "CCOC(=O)c1c(-c2c(Cl)c3ccccc3oc2=O)nn(-c2cccc(C)c2)c1C(=O)OCC",
    "TARGET SYSTEM": "A549",
    "READOUT VALUE": 36
  },
  {
    "COMPOUND STRUCTURE": "COC(=O)c1c(-c2cc3ccccc3oc2=O)nn(-c2ccccc2)c1C(=O)OC",
    "TARGET SYSTEM": "A549",
    "READOUT VALUE": 28
  },
  {
    "COMPOUND STRUCTURE": "Cc1nn(-c2cccc(Cl)c2)c2c1c(=O)oc1ccccc12",
    "TARGET SYSTEM": "A549",
    "READOUT VALUE": 85
  },
  {
    "COMPOUND STRUCTURE": "CCOC(=O)c1c(-c2cc3ccccc3oc2=O)nn(-c2ccc(Cl)cc2)c1C(=O)OCC",
    "TARGET SYSTEM": "A549",
    "READOUT VALUE": 35
  },
  {
    "COMPOUND STRUCTURE": "Cc1nn(-c2ccc(Cl)cc2)c2c1c(=O)oc1ccccc12",
    "TARGET SYSTEM": "A549",
    "READOUT VALUE": 136
  },
  {
    "COMPOUND STRUCTURE": "Cc1ccc2oc(=O)c3cnn(-c4cccc(Cl)c4)c3c2c1",
    "TARGET SYSTEM": "A549",
    "READOUT VALUE": 150
  },
  {
    "COMPOUND STRUCTURE": "Cc1cccc(-n2ncc3c(=O)oc4ccc(C)cc4c32)c1",
    "TARGET SYSTEM": "A549",
    "READOUT VALUE": 145
  },
  {
    "COMPOUND STRUCTURE": "CCOC(=O)c1c(-c2c(Cl)c3cc(C)ccc3oc2=O)nn(-c2cccc(C)c2)c1C(=O)OCC",
    "TARGET SYSTEM": "A549",
    "READOUT VALUE": 115
  },
  {
    "COMPOUND STRUCTURE": "CCOC(=O)c1c(-c2c(Cl)c3ccccc3oc2=O)nn(-c2ccc(OC)cc2)c1C(=O)OCC",
    "TARGET SYSTEM": "A549",
    "READOUT VALUE": 18
  },
  {
    "COMPOUND STRUCTURE": "COC(=O)c1c(-c2cc3ccccc3oc2=O)nn(-c2cccc(C)c2)c1C(=O)OC",
    "TARGET SYSTEM": "A549",
    "READOUT VALUE": 51
  },
  {
    "COMPOUND STRUCTURE": "CCOC(=O)c1c(-c2c(Cl)c3ccccc3oc2=O)nn(-c2cccc(Cl)c2)c1C(=O)OCC",
    "TARGET SYSTEM": "A549",
    "READOUT VALUE": 38
  },
  {
    "COMPOUND STRUCTURE": "CCOC(=O)c1c(-c2c(Cl)c3ccccc3oc2=O)nn(-c2ccccc2)c1C(=O)OCC",
    "TARGET SYSTEM": "A549",
    "READOUT VALUE": 34
  },
  {
    "COMPOUND STRUCTURE": "CCOC(=O)c1c(-c2cc3cc4c(cc3oc2=O)OC(C)(C)CC4)nn(-c2cccc(Cl)c2)c1C(=O)OCC",
    "TARGET SYSTEM": "A549",
    "READOUT VALUE": 146
  },
  {
    "COMPOUND STRUCTURE": "CCOC(=O)c1c(-c2cc3cc4c(cc3oc2=O)OC(C)(C)CC4)nn(-c2ccccc2)c1C(=O)OCC",
    "TARGET SYSTEM": "A549",
    "READOUT VALUE": 189
  },
  {
    "COMPOUND STRUCTURE": "O=c1oc2ccccc2c2c1cnn2-c1cccc(Cl)c1",
    "TARGET SYSTEM": "A549",
    "READOUT VALUE": 110
  },
  {
    "COMPOUND STRUCTURE": "CCOC(=O)c1c(-c2cc3cc(OC)ccc3oc2=O)nn(-c2cccc(C)c2)c1C(=O)OCC",
    "TARGET SYSTEM": "A549",
    "READOUT VALUE": 102
  },
  {
    "COMPOUND STRUCTURE": "COc1cccc2c1C(=O)c1c(O)c3c(c(O)c1C2=O)C[C@@](O)(C(=O)CO)C[C@@H]3O[C@H]1C[C@H](N)[C@H](O)[C@H](C)O1",
    "TARGET SYSTEM": "A549",
    "READOUT VALUE": 4
  },
  {
    "COMPOUND STRUCTURE": "CCOC(=O)c1c(-c2cc3ccccc3oc2=O)nn(-c2cccc(C)c2)c1C(=O)OCC",
    "TARGET SYSTEM": "A549",
    "READOUT VALUE": 52
  },
  {
    "COMPOUND STRUCTURE": "Cc1nn(-c2cccc(F)c2)c2c1c(=O)oc1ccccc12",
    "TARGET SYSTEM": "A549",
    "READOUT VALUE": 125
  }
]
